Data provenance is PubChem BioAssay (NCI).

Tested on: HCC-2998 colon
Assay: NCI tumour cell line growth inhibition, 48 h
parameterMeasured: TGI (µM)

compound	relationalOperator	reading
O=C(OCc1ccccc1)n1cccc1	>	100
CN1N=C(c2ccccc2)c2cc(Cl)ccc2N=C1N/N=C/c1ccc(N(C)C)cc1	>	100
COc1cccc(/C=C/C(=O)N2CC(CCl)c3c2cc(N)c2ccccc32)c1 (stereo not given)	=	0.0166
CCOC(=O)c1cc(C(=O)c2cc(OC)c(OC)c(OC)c2)n2ccc(-c3cc[n+](CC(=O)c4cc(OC)c(OC)c(OC)c4)cc3)cc12	=	15.1
O=C(NCc1ccccc1)C1C(=O)C(=O)N(Cc2ccccc2)C1=O (stereo not given)	>	100

====

Tested on: T-47D breast
Assay: NCI tumour cell line growth inhibition, 48 h
Listed compounds paired with reported TGI
parameterMeasured: TGI

compound	parameterMeasured	reading
NC(Cc1c[nH]c2cccc(F)c12)C(=O)O (stereo not given)	TGI	> 4500 µM
Cc1ccc(O)c(C2=NNC(c3cccc(Cl)c3)C2)c1 (stereo not given)	TGI	> 100 µM
CCOC(=O)c1cc2c(n1Cc1ccccc1OC)-c1oncc1CCC2	TGI	> 100 µM
CCOc1nc2sc3c(c2c(=O)n1CCSSCCn1c(OCC)nc2sc4c(c2c1=O)CCCC4)CCCC3	TGI	> 100 µM
S=C1Cc2c(-c3ccccc3)cc(-c3ccc(Cl)cc3)nc2-c2ccccc2N1	TGI	> 57.3 µM
Nn1c(CCCCCCCCc2n[nH]c(=S)n2N)n[nH]c1=S	TGI	> 100 µM
CC(=O)/C=C/c1ccc(N(CCO)Cc2ccc(C(C)(C)C)cc2)cc1	TGI	161 µM
Nc1cc(N)c2nc(-c3ccccc3)c(NCc3ccc(Cl)c(Cl)c3)nc2c1	TGI	54.4 µM
CCN1C/C(=C\c2ccc(Cl)cc2)c2[nH]c(=O)c(C#N)c(-c3ccc(Cl)cc3)c2C1	TGI	> 100 µM
Cc1cn2c(/C=C3\C(=O)N(C)c4ccc(Cl)cc43)c(C)nc2s1	TGI	> 100 µM
Cc1ccc(NC2=CC(=O)C(=O)c3ccccc32)cc1	TGI	18.1 µM
COc1ccc2nc3ccccc3c(NCc3ccccc3)c2c1	TGI	8.89 µM
CC[C@]1(Cc2ccc(OC)c(OC)c2)C=[N+]([O-])O[C@H](OCc2ccccc2)[C@@H]1OC(C)=O	TGI	> 100 µM
O=C(Nc1ccc(Cl)cc1)N1CCN(c2ccc3nncn3n2)CC1	TGI	> 100 µM
c1ccc(COC[C@H]2C3OCC([C@H](OCc4ccccc4)[C@H]3OCc3ccccc3)N2Cc2ccccc2)cc1 (stereo not given in full)	TGI	> 100 µM
COc1ccc(NC(/C(C(=O)C(=O)/C=C(\O)c2ccccc2)=C(\O)c2ccccc2)c2ccc(OC)cc2)cc1 (stereo not given)	TGI	81.4 µM
O=C(O)c1[nH]c2c([N+](=O)[O-])cc([N+](=O)[O-])cc2c1C(=O)O	TGI	> 100 µM
O=C(c1ccc(Nc2nccc(NCCCCNc3ccnc4cc(Cl)ccc34)n2)cc1)N1CCCCC1	TGI	5.6 µM
Cc1cc(S(=O)(=O)NC2=NCC(C)(C)CN2)c(S)cc1Cl	TGI	> 100 µM
COc1cccc(CCn2c(N)c(C#N)c3ccc([N+](=O)[O-])cc3c2=O)c1	TGI	> 46.4 µM
O=C(CCl)Nc1ccc(Cc2ccc(NC(=O)CCl)cc2)cc1	TGI	4.67 µM
Oc1ccc(/C=N/NC(=S)Nc2cccnc2)nc1	TGI	> 100 µM
N/C(=N/S(=O)(=O)c1cc(C(=O)Nc2ccc(F)cc2)c(Cl)cc1SCc1ccccc1)Nc1ccccc1O	TGI	28.6 µM
Cn1cc(-c2nc(-c3cn(C)c4ncccc34)cs2)c2ccccc21	TGI	17 µM
CC(C)(C)NC(=S)N/N=C/c1ccccn1	TGI	> 100 µM
COc1ccc2c(c1)C(=O)c1c-2n(CCCCl)c(=O)c2cc(N)ccc12	TGI	> 100 µM
COC(=O)C1=COC2OC3CC1C2C(C)O3 (stereo not given)	TGI	> 100 µM
CC(=N\O)/C(C)=N/O.CC(=N\O)/C(C)=N/O.[Fe].[NH2-].c1c[nH]cn1	TGI	> 100 µM
COC(=O)/C(C#N)=C/c1cc(C(C)(C)C)c(O)c(C(C)(C)C)c1	TGI	19.4 µM
CC12CCC(=O)[C@@]1(C)CCCC2O (stereo not given in full)	TGI	> 100 µM
C1=C\CCCCN2CC[C@H]3[C@H](CCCC/C=C\CCCN4C[C@@H](CCCCC/1)C[C@@H]3C4)C2	TGI	27.4 µM
OCC1OC(n2cnc3c(NCc4ccco4)ncnc32)C(O)C1O (stereo not given)	TGI	11.3 µM
CCC(C(=O)[C@@H](C)[C@@H](O)[C@H](C)[C@@H]1O[C@@H]([C@@H](CC)C(=O)ONC(=O)c2ccccc2)CC[C@@H]1C)[C@H]1O[C@]2(C=CC(=O)[C@]3(CC[C@@](C)([C@H]4CC[C@](O)(CC)[C@H](C)O4)O3)O2)[C@H](C)C[C@@H]1C (stereo not given in full)	TGI	2.98 µM
O=C(O)CCC(NC(=O)c1ccc(CNc2nc3cc(C(F)(F)F)ccc3nc2C(=O)O)cc1)C(=O)O (stereo not given)	TGI	> 100 µM
CCOC(=O)c1ccc(NC(=O)c2cccc(NC3=C(Cl)C(=O)N(Cc4ccccc4)C3=O)c2)cc1	TGI	> 100 µM
Nc1no[n+]([O-])c1-c1nnc2c(n1)-c1ccccc1C2=O	TGI	5.35 µM
O=C(O)CCC(NC(=O)c1ccc(Oc2nc3ccccc3nc2-c2ccccc2)cc1)C(=O)O (stereo not given)	TGI	> 100 µM
COc1cc2c(cc1O)C(=O)O[C@@H]1CC=C3CCN(C)[C@H]3[C@H]21	TGI	> 25 µM
COc1ccc(C(Nc2ccccn2)c2cc(C(C)(C)C)cc(C(C)(C)C)c2O)cc1 (stereo not given)	TGI	76.4 µM
CN1N=C(c2ccccc2)c2cc(Cl)ccc2N=C1N/N=C/c1ccc(N(C)C)cc1	TGI	> 100 µM

====

Listed compounds paired with reported GI50
Tested on: SK-OV-3 ovarian
Assay: NCI tumour cell line growth inhibition, 48 h

compound	GI50
Cn1cc(-c2nc(-c3cn(C)c4ncccc34)cs2)c2ccccc21	1.98 µM
CC(=O)c1ccc(Oc2c3ccccc3nc3occc23)cc1	59 µM
NC(Cc1c[nH]c2cccc(F)c12)C(=O)O (stereo not given)	518 µM
Cc1ccc(NC2=CC(=O)C(=O)c3ccccc32)cc1	11.3 µM
CCOC(=O)c1cc2c(n1Cc1cc(OC)cc(OC)c1)-c1oncc1CC2	0.309 µM
C=CCN1C(=O)[C@]2(SC1=S)[C@H](c1cccc(Cl)c1)CN(C)[C@]21C(=O)NC2C=CC(Cl)=C[C@H]21 (stereo not given in full)	8.36 µM
CCC(=C(c1ccc(OCCN2CCCC2)cc1)c1ccc(OCCN2CCCC2)cc1)c1ccc(Cl)cc1	0.583 µM
CN(C)C/C=C/C(=O)Nc1cc2c(Nc3cccc(Cl)c3F)ncnc2cc1OCCOC(F)F	< 0.01 µM
CCN(CC)CCCNc1cc(OC)c(OC)c2cccnc12	9.37 µM
CC1(C)CC[C@]2(CO)CC[C@]3(C)C(=CC[C@@H]4[C@@]5(C)CCNCC(C)(C)[C@@H]5CC[C@]43C)[C@@H]2C1	13.5 µM

====

Test system: MOLT-4 leukemia
Assay: NCI tumour cell line growth inhibition, 48 h
Listed molecules paired with reported TGI
parameterMeasured: TGI

molecule	parameterMeasured	reading
CC(=O)N1N=C(c2ccc3ccccc3c2O)CC1c1ccc(N(C)C)cc1 (stereo unspecified)	TGI	> 100 µM
Nc1ncc2c(n1)-c1ccccc1OC2N1CCOCC1 (stereo unspecified)	TGI	> 100 µM
CN(C)CCNC(=O)c1cccc2c1nc(-c1ccncc1)c1ccccc12	TGI	> 100 µM
COc1ccc2nc3ccccc3c(NCc3ccccc3)c2c1	TGI	11.2 µM
O=Cc1ccc(-c2ccc(S(=O)(=O)O)cc2)o1	TGI	> 100 µM
O=c1[nH]c2ccccc2n1C1CCN(CCOc2ccccc2)CC1	TGI	> 100 µM
COc1ccc(NC(/C(C(=O)C(=O)/C=C(\O)c2ccccc2)=C(\O)c2ccccc2)c2ccc(OC)cc2)cc1 (stereo unspecified)	TGI	> 100 µM
C1=C\CCCCN2CC[C@H]3[C@H](CCCC/C=C\CCCN4C[C@@H](CCCCC/1)C[C@@H]3C4)C2	TGI	17.4 µM
O=C(Nc1cc2cc([N+](=O)[O-])ccc2oc1=O)c1cccs1	TGI	> 100 µM
CCOC(=O)c1csc(-c2cn(C)c3c2C(=O)C(OC)=CC3=O)n1	TGI	> 100 µM
Cc1nn(C(=O)c2ccc(Cl)cc2)c2c1C(c1ccc(Cl)cc1)SC(N)=N2 (stereo unspecified)	TGI	> 10 µM
CC(=O)OCC1=CC2CCC3C(C)(CCC[C@]3(C)COC(C)=O)C23CC[C@H]1C3 (stereo partly specified)	TGI	51.5 µM
COc1cc([C@@H]2c3cc4c(cc3[C@@H](NC(=O)NO)[C@H]3COC(=O)[C@H]23)OCO4)cc(OC)c1O	TGI	> 100 µM
O=C(COc1cccc(/C=C2\Oc3ccc4ccccc4c3C2=O)c1)c1ccc([N+](=O)[O-])cc1	TGI	38.6 µM
Oc1ccc(/C=N/NC(=S)Nc2cccnc2)nc1	TGI	15 µM
C[C@@H](Oc1cc(-c2cnn(C3CCNCC3)c2)cnc1N)c1c(Cl)cc(F)cc1Cl	TGI	7.71 µM
CCOC(=O)c1cc2c(n1Cc1ccccc1OC)-c1oncc1CCC2	TGI	> 100 µM
O=C(O)c1[nH]c2c([N+](=O)[O-])cc([N+](=O)[O-])cc2c1C(=O)O	TGI	> 100 µM
CCOC(=O)c1nc2cc(F)cc(F)c2[nH]c1=O	TGI	> 100 µM
O=C(CCl)Nc1ccc(Cc2ccc(NC(=O)CCl)cc2)cc1	TGI	6.32 µM
c1ccc(COC[C@H]2C3OCC([C@H](OCc4ccccc4)[C@H]3OCc3ccccc3)N2Cc2ccccc2)cc1 (stereo partly specified)	TGI	> 51.7 µM
COC(=O)/C(=N\N)C(C(=O)C(=O)Nc1nc(=S)[nH][nH]1)c1nc2ccc([N+](=O)[O-])cc2[nH]c1=O (stereo unspecified)	TGI	> 100 µM
N#CC1=C(c2ccccc2)OC2(N)OC(c3ccccc3)=C(C#N)C12C#N (stereo unspecified)	TGI	> 100 µM
C/C(=N/N)c1sc(-c2nc(C)c(/C(C)=N\N)s2)nc1C	TGI	83.3 µM
COc1ccc(NC(=O)NNS(=O)(=O)c2ccc(C)cc2)cc1	TGI	> 100 µM
CCOC(=O)c1ccc(NC(=O)c2cccc(NC3=C(Cl)C(=O)N(Cc4ccccc4)C3=O)c2)cc1	TGI	99.2 µM
O=C(NCc1ccccc1)C1C(=O)C(=O)N(Cc2ccccc2)C1=O (stereo unspecified)	TGI	> 100 µM
CC(=O)O[C@H]1CC[C@]2(C)C3C(=O)C[C@]4(C)[C@@H](C(C)CCC(=O)O)CC[C@@]4(C)[C@@H]3CC[C@H]2C1(C)C (stereo partly specified)	TGI	> 50 µM
O=C1NC(N2CCCCC2)=N/C1=C\c1ccco1	TGI	> 100 µM
Nn1c(CCCCCCCCc2n[nH]c(=S)n2N)n[nH]c1=S	TGI	> 100 µM
C=CCC1C(=O)CC2(C)C(CC=C)C(=O)CC12C (stereo unspecified)	TGI	> 100 µM
COc1ccc(/C=C/c2nc(=S)[nH][nH]2)cc1OC	TGI	> 100 µM
CCC(C)C(=O)OC1CCC=C2C=CC(C)C(CCC3CC(O)CC(=O)O3)C21 (stereo unspecified)	TGI	> 100 µM
C=C1C(=O)O[C@H]2[C@H]1CC/C(COC(=O)/C=C\C(=O)NCc1ccc(Cn3c(=O)sn(-c4ccc(Cl)cc4)c3=O)cc1)=C\CC[C@@]1(C)O[C@@H]21	TGI	3.27 µM
CCOC(=O)CCSC1=CC(=O)c2nc3ccccc3c3ccnc1c23	TGI	> 100 µM
COC(=O)C1=COC2OC3CC1C2C(C)O3 (stereo unspecified)	TGI	> 100 µM
C/C(=N\NC(=S)N1CCN(c2ccccn2)CC1)c1cccc2cccnc12	TGI	> 62.2 µM
COC1(C)CNCC(C)(C)NC(=O)C(C)(OC)CNCC(C)(C)NC1=O (stereo unspecified)	TGI	> 100 µM
Cc1ccc2c(c1)CC1(C2)Cc2ccc(C)cc2C1=O (stereo unspecified)	TGI	45.7 µM
CCc1ccccc1NC(=O)C(=O)C(C#N)c1c(Cl)cccc1Cl (stereo unspecified)	TGI	> 100 µM
CCOC(OC1=C(C#N)CCCC1)C(CC)[Se]c1ccccc1[N+](=O)[O-] (stereo unspecified)	TGI	71.2 µM
